Where do the numbers come from? From patent US12240846B2.

# target or system: ABL1 (T315I) (Homo sapiens, UniProt P00519, T315I)
# experimental details: Luminescence-based ABL kinase assay (300 μM ATP), ADP-Glo
# Type: biochemical
Label key: 1 (yes) means IC50 under 100 nM; 0 (no) means IC50 of 100 nM or more.

INSERT INTO assay_data (molecule, qualitative_label) VALUES
  ('COc1cccc(F)c1-c1c(C)c2cnc(NC(=O)[C@H]3C[C@H]3F)cc2n1C [Compound 55]', '1 (yes)'),
  ('COc1ccnc(C)c1-c1cc2cc(NC(=O)[C@@H]3C[C@@H]3F)ncc2n1C [Compound 86]', '0 (no)'),
  ('COc1nc(C)nc(OC)c1-c1cc2cc(NC(=O)[C@@H]3C[C@@H]3F)ncc2n1C [Compound 72]', '1 (yes)'),
  ('COc1ccccc1-c1cc2cnc(NC(=O)[C@@H]3C[C@@H]3F)cc2n1C [Compound 51]', '1 (yes)'),
  ('COc1ccnc(OC)c1-c1cc2cc(NC(=O)[C@H]3C[C@@H]3CN3CC4CC(C3)N4)ncc2n1C (single isomer, unassigned) [Example 135, Enantiomer 1]', '1 (yes)'),
  ('CCOc1nccc(C)c1-c1cc2cc(NC(=O)[C@@H]3C[C@@H]3F)ncc2n1C [Compound 114]', '0 (no)'),
  ('COc1ccccc1-c1cc2cc(NC(=O)[C@H]3C[C@H]3CN3CCN(C)CC3)ncc2n1C (relative stereo) [Compound 40]', '0 (no)'),
  ('COc1ncnc(OC)c1-c1cc2cc(NC(=O)[C@H]3C[C@H]3F)ncc2n1C [Compound 94]', '0 (no)'),
  ('COc1ccccc1-c1c(C)c2cc(NC(=O)[C@H]3C[C@H]3F)ncc2n1C [Compound 44]', '1 (yes)'),
  ('COc1cccc(C)c1-c1cc2cc(NC(=O)[C@@H]3C[C@@H]3F)ncc2n1C [Compound 25]', '1 (yes)'),
  ('COc1nc(C)ncc1-c1cc2cc(NC(=O)[C@@H]3C[C@@H]3F)ncc2n1C [Compound 141]', '0 (no)'),
  ('Cc1cccnc1-c1cc2cc(NC(=O)C3CC3)ncc2n1C [Compound 20]', '0 (no)'),
  ('CCc1ccnc(OC)c1-c1cc2cc(NC(=O)[C@@H]3C[C@@H]3F)ncc2n1C [Compound 142]', '1 (yes)'),
  ('Cc1cc2[nH]cnc2cc1-c1cc2cc(NC(=O)C3CC3)ncc2n1C [Compound 17]', '0 (no)'),
  ('COc1ncc(F)c(OC)c1-c1cc2cc(NC(=O)[C@H]3C[C@@H]3CN(C)C)ncc2n1C (single isomer, unassigned) [Compound 131]', '1 (yes)'),
  ('COc1ccnc(OC)c1-c1cc2cc(NC(=O)[C@H]3C[C@@H]3CN(C)C)ncc2n1C (single isomer, unassigned) [Compound 123]', '1 (yes)'),
  ('COc1ncnc(OC)c1-c1cc2cc(NC(=O)C3CC3)ncc2n1C [Compound 118]', '0 (no)'),
  ('CCN1CCN(CCNC(=O)Nc2cc3cc(-c4c(OC)ccnc4OC)n(C)c3cn2)CC1 [Compound 83, formic acid]', '0 (no)'),
  ('[2H]C([2H])([2H])Oc1ncccc1-c1cc2cc(NC(=O)[C@H]3C[C@H]3F)ncc2n1C [Compound 33]', '0 (no)'),
  ('COc1ccnc(OC)c1-c1cc2cc(NC(=O)[C@H]3C[C@H]3F)ncc2n1C [Compound 97]', '1 (yes)'),
  ('[2H]C([2H])([2H])Oc1ncccc1-c1cc2cc(NC(=O)[C@@H]3C[C@@H]3F)ncc2n1C [Compound 32]', '1 (yes)'),
  ('COc1ncccc1-c1cc2cnc(NC(=O)C3CC3)cc2n1C [Compound 50]', '0 (no)'),
  ('COc1nc(N)nc(OC)c1-c1cc2cc(NC(=O)[C@@H]3C[C@@H]3F)ncc2n1C [Compound 103]', '1 (yes)'),
  ('COc1cccc(F)c1-c1cc2cc(NC(=O)[C@@H]3C[C@@H]3F)ncc2n1C [Compound 27]', '1 (yes)'),
  ('COc1ncc(F)c(OC)c1-c1cc2cc(NC(=O)NCCN3CCNCC3)ncc2n1C [Compound 82, formic acid]', '1 (yes)'),
  ('Cn1c(-c2cccnc2OC2CC2)cc2cc(NC(=O)[C@@H]3C[C@@H]3F)ncc21 [Compound 115]', '0 (no)'),
  ('[2H]C([2H])([2H])Oc1ncnc(OC([2H])([2H])[2H])c1-c1cc2cc(NC(=O)[C@@H]3C[C@@H]3F)ncc2n1C [Compound 95]', '1 (yes)');
